tested on: Rif^R APEC O78; experiment: Efficacy of QSIs in APEC-infected chickens (oral gavage pilot); type: in vivo, Escherichia coli; conditions: Table S1; oral gavage pilot, n = 6/group, 8 DPI; PC 66.6 (4/6)

- compound: "Cc1ccc(CN2CCN(CCCc3ccccc3)CC2)cc1 [QSI-5]"
  Mortality rate % (Nr.) [%]: 0
- compound: "CCc1ccccc1NC1NC(c2c(C)nc3ccccn23)=CS1 (stereo not shown) [QSI-8]"
  Mortality rate % (Nr.) [%]: 33.3
- compound: "COCCN1CCC(CN(Cc2cccnc2)Cc2ccccc2Cl)CC1 [QSI-1]"
  Mortality rate % (Nr.) [%]: 50
- compound: "O=C(CCN1CCN(c2ccccc2F)CC1)Nc1ccc(Br)cc1 [QSI-7]"
  Mortality rate % (Nr.) [%]: 66.6
- compound: "O=[N+]([O-])c1cccc(S(=O)(=O)Nc2ccc(Br)cc2)c1 [QSI-6]"
  Mortality rate % (Nr.) [%]: 66.6
- compound: "Cc1ccccc1N1CCN(C2CCCN(C(=O)c3ccc(F)c(Cl)c3)C2)CC1 (stereo not shown) [QSI-2]"
  Mortality rate % (Nr.) [%]: 33.3
- compound: "OCCC1CN(C2CCN(c3ccccc3)CC2)CCN1CCCc1ccccc1 (stereo not shown) [QSI-10]"
  Mortality rate % (Nr.) [%]: 16.6

* * *

Items are presented alongside their recorded Average lesion severity, Lung.
test system: Rif^R APEC O78; test: Efficacy of QSIs in APEC-infected chickens (oral gavage pilot); type: in vivo, Escherichia coli; details: Table S1; lesion score; oral gavage pilot; PC 1.25

- compound: "O=[N+]([O-])c1cccc(S(=O)(=O)Nc2ccc(Br)cc2)c1"
  Average lesion severity, Lung: 0.50
- compound: "Cc1ccccc1N1CCN(C2CCCN(C(=O)c3ccc(F)c(Cl)c3)C2)CC1 (stereo not shown)"
  Average lesion severity, Lung: 0.17
- compound: "O=C(CCN1CCN(c2ccccc2F)CC1)Nc1ccc(Br)cc1"
  Average lesion severity, Lung: 0.17
- compound: "COCCN1CCC(CN(Cc2cccnc2)Cc2ccccc2Cl)CC1"
  Average lesion severity, Lung: 0.50
- compound: "CCc1ccccc1NC1NC(c2c(C)nc3ccccn23)=CS1 (stereo not shown)"
  Average lesion severity, Lung: 0.17
- compound: "Cc1ccc(CN2CCN(CCCc3ccccc3)CC2)cc1"
  Average lesion severity, Lung: 0.17
- compound: "OCCC1CN(C2CCN(c3ccccc3)CC2)CCN1CCCc1ccccc1 (stereo not shown)"
  Average lesion severity, Lung: 0.00

* * *

Test system: Rif^R APEC O78
Assay: Efficacy of QSIs in APEC-infected chickens (oral gavage pilot)
Format: in vivo, Escherichia coli
Details: Table S1; lesion score; oral gavage pilot; PC 1.75
Description: The chicken experiment was carried out using 1-day-old broiler chickens (Mayer Hatchery, OH, USA). Feed and water were given ad libitum. […] Chickens were monitored for clinical signs for 8 DPI. […] Pathological lesions severity in internal organs (pericarditis, perihepatitis, airsacculitis, and lung congestion) was scored as described previously ([21], [59]). […]
recorded_endpoint: Average lesion severity, Liver

- molecule: "O=[N+]([O-])c1cccc(S(=O)(=O)Nc2ccc(Br)cc2)c1"
  measured_result: 0.83
- molecule: "OCCC1CN(C2CCN(c3ccccc3)CC2)CCN1CCCc1ccccc1 (stereo not shown)"
  measured_result: 0.00
- molecule: "COCCN1CCC(CN(Cc2cccnc2)Cc2ccccc2Cl)CC1"
  measured_result: 2.17
- molecule: "Cc1ccccc1N1CCN(C2CCCN(C(=O)c3ccc(F)c(Cl)c3)C2)CC1 (stereo not shown)"
  measured_result: 1.00
- molecule: "Cc1ccc(CN2CCN(CCCc3ccccc3)CC2)cc1"
  measured_result: 0.33
- molecule: "O=C(CCN1CCN(c2ccccc2F)CC1)Nc1ccc(Br)cc1"
  measured_result: 1.33
- molecule: "CCc1ccccc1NC1NC(c2c(C)nc3ccccn23)=CS1 (stereo not shown)"
  measured_result: 0.50

* * *

system: Rif^R APEC O78; test: Efficacy of QSIs in APEC-infected chickens (oral gavage pilot); assay type: in vivo, Escherichia coli; settings: Table S1; lesion score; oral gavage pilot; PC 2.25
Classification field: enter 1 for Average lesion severity, Heart values not below 1, -1 for values below it.

- molecule: "Cc1ccc(CN2CCN(CCCc3ccccc3)CC2)cc1"
  system_under_test: "Rif^R APEC O78"
  class_label: -1
- molecule: "COCCN1CCC(CN(Cc2cccnc2)Cc2ccccc2Cl)CC1"
  system_under_test: "Rif^R APEC O78"
  class_label: 1
- molecule: "Cc1ccccc1N1CCN(C2CCCN(C(=O)c3ccc(F)c(Cl)c3)C2)CC1 (stereo not shown)"
  system_under_test: "Rif^R APEC O78"
  class_label: 1
- molecule: "CCc1ccccc1NC1NC(c2c(C)nc3ccccn23)=CS1 (stereo not shown)"
  system_under_test: "Rif^R APEC O78"
  class_label: -1
- molecule: "OCCC1CN(C2CCN(c3ccccc3)CC2)CCN1CCCc1ccccc1 (stereo not shown)"
  system_under_test: "Rif^R APEC O78"
  class_label: -1
- molecule: "O=[N+]([O-])c1cccc(S(=O)(=O)Nc2ccc(Br)cc2)c1"
  system_under_test: "Rif^R APEC O78"
  class_label: 1
- molecule: "O=C(CCN1CCN(c2ccccc2F)CC1)Nc1ccc(Br)cc1"
  system_under_test: "Rif^R APEC O78"
  class_label: 1

* * *

system: Rif^R APEC O78; test: Efficacy of QSIs in APEC-infected chickens (oral gavage pilot); type: in vivo, Escherichia coli; details: Table S1; lesion score; oral gavage pilot; PC 2.00
Average lesion severity, Airsac strictly under 0.9 means 1.0; at 0.9 or over means 0.0.

- molecule: "Cc1ccc(CN2CCN(CCCc3ccccc3)CC2)cc1 [QSI-5]"
  class_label: 1.0
- molecule: "CCc1ccccc1NC1NC(c2c(C)nc3ccccn23)=CS1 (stereo not shown) [QSI-8]"
  class_label: 1.0
- molecule: "COCCN1CCC(CN(Cc2cccnc2)Cc2ccccc2Cl)CC1 [QSI-1]"
  class_label: 0.0
- molecule: "O=[N+]([O-])c1cccc(S(=O)(=O)Nc2ccc(Br)cc2)c1 [QSI-6]"
  class_label: 0.0
- molecule: "O=C(CCN1CCN(c2ccccc2F)CC1)Nc1ccc(Br)cc1 [QSI-7]"
  class_label: 0.0
- molecule: "OCCC1CN(C2CCN(c3ccccc3)CC2)CCN1CCCc1ccccc1 (stereo not shown) [QSI-10]"
  class_label: 1.0

* * *

system: Rif^R APEC O78; test: Efficacy of QSIs in APEC-infected chickens (oral gavage pilot); format: in vivo, Escherichia coli; conditions: chickens, QSI oral gavage once daily 5 days, s/c APEC O78 1 × 10^7 CFU/bird; PC mortality normalized to 100%
recorded_endpoint: reduction in mortality compared with the PC group

- molecule: "CCc1ccccc1NC1NC(c2c(C)nc3ccccn23)=CS1 (centres unmarked) [QSI-8]"
  measured_result: "50%"
- molecule: "O=C(CCN1CCN(c2ccccc2F)CC1)Nc1ccc(Br)cc1 [QSI-7]"
  measured_result: "did not reduce mortality"
- molecule: "COCCN1CCC(CN(Cc2cccnc2)Cc2ccccc2Cl)CC1 [QSI-1]"
  measured_result: "25%"
- molecule: "Cc1ccccc1N1CCN(C2CCCN(C(=O)c3ccc(F)c(Cl)c3)C2)CC1 (centres unmarked) [QSI-2]"
  measured_result: "50%"
- molecule: "O=[N+]([O-])c1cccc(S(=O)(=O)Nc2ccc(Br)cc2)c1 [QSI-6]"
  measured_result: "did not reduce mortality"

Origin of values: paper PMC9241644
